Measured values drawn from paper PMC12192727 for this set.

experiment: Caco-2 cell permeability; format: in vitro ADME, human; settings: human; Caco-2 cells
VALUE TYPE: Papp B→A (×10⁻⁶ cm/s)
Answer with a number only, understood to be in ×10⁻⁶ cm/s.

Guide cases for Papp B→A, answers given:
MOLECULE	ASSAY RESULT
CC12CCC(=O)C=C1CCCC2n1cc(-c2ccccc2)nn1 (stereo not shown) [Compound 45]	11.8
CC(C)NCC(O)COc1cccc2ccccc12 (stereo not shown) [Propranolol]	16.4
COc1cc2nc(N3CCN(C(=O)c4ccco4)CC3)nc(N)c2cc1OC [Prazosin]	24.3

Then this molecule:
// Papp B→A lookup, key: C[C@H]1O[C@@H](O[C@H]2[C@@H](O)C[C@H](O[C@H]3[C@@H](O)C[C@H](O[C@H]4CC[C@@]5(C)[C@H](CC[C@@H]6[C@@H]5C[C@@H](O)[C@]5(C)[C@@H](C7=CC(=O)OC7)CC[C@]65O)C4)O[C@@H]3C)O[C@@H]2C)C[C@H](O)[C@@H]1O [Digoxin]
18.8

###

tested on: mouse sperm; assay: Mouse sperm total motility in vitro (CASA); format: cell-based; settings: Mus musculus, Sperm, 1 h, non-steroidal small molecules; mouse sperm total motility, nanomolar range concentration, 1 h; read-out: Maximal Motility Inhibition (%)
# Emax annotations
Express the result in % but write the number alone.

> print(dat)
                                   compound  value.type  output.unit  assay.result
1  CC12CCC(=O)C=C1CCC2c1c[nH]nn1 (stereo not drawn) [Compound 35]        Emax            %            47

Quick one: Emax for CC12CCC(=NN=C(N)N)C=C1CCCC2c1cn(Cc2ccccc2)nn1 (stereo not drawn) [Compound 40] ?
49

Try this compound too: CC12CCC(=NN=C(N)N)C=C1CCC2C=NN=C(N)N (stereo not drawn) [Compound 41, reference compound]
44

Quick one: C[C@]12CCC(=O)C=C1CC[C@@H]2c1cn(Cc2ccccc2)nn1 [Compound 33]
48

What about CC12CCC(=NN=C(N)N)C=C1CCCC2C=NN=C(N)N (stereo not drawn) [Compound 42] ?
49

###

experiment: In vivo pharmacokinetic study; design: species or system CD-1 mice; settings: male, CD-1, mouse, plasma; CD1 mice, IV 10 mg/kg
VALUE TYPE: AUC(0-inf) (ng·h/mL)
Give the value, in units of ng·h/mL, as a plain number.

Reported AUC(0-inf) for CC12CCC(=O)C=C1CCCC2n1cc(-c2ccccc2)nn1 (stereo not shown) : what is it?
561
